This section presents compounds with their documented melting point values.

> print(dat)
                                   molecule    test.result
1  Cc1ccccc1C(=O)Nc1ccc(C(=O)N2Cc3cccn3Cc3ccccc32)cc1  212 to 215 °C
2     CCN(C(=O)CCCCc1nnnn1C1CCCCC1)C1CCCCC1    92 to 95 °C
3                OCCON=Cc1cncc(-c2ccccc2)c1  102 to 104 °C

Could you now consider this next compound?
-- ask State the recorded melting point for this entry: N#CSc1c(C(F)(F)F)nn(-c2c(Cl)cc(C(F)(F)F)cc2Cl)c1N
-- reply 49 to 50 °C

###

MEASUREMENT KIND: melting point

Answered cases to consult:
> print(dat)
                                   molecule      test.result
1  Cn1[nH]c(=O)n(-c2cc(F)c(C(=O)Cl)cc2F)c1=O         > 250 °C
2  COc1ccc(-c2nc(SC(F)(F)C(F)F)[nH]c2-c2ccncc2)cc1    212 to 214 °C
3                         Oc1ccnc(OC(F)F)c1  88.6 to 89.8 °C

-- ask If you can, please state the reported melting point value of CCn1cc(C(=O)O)c(=O)c2cc(F)c(N3CCN4CCC3C4)nc21 (centres undefined) .
-- reply 228 to 229 °C

###

Documented melting point across a set of molecules

-- ask For the molecule Cc1cc(C(C)C(=O)O)ccc1C(=O)c1cccs1 (stereo unspecified) , what melting point is on record?
-- reply 100 °C

-- ask For the molecule shown here, C=C1c2ccccc2C(n2cncc2C(=O)OC)C1(C)C (stereo unspecified) , give the reported melting point.
-- reply 125 to 126 °C

###

Entries annotated with measured melting point

> print(dat)
                                   compound  test.result
1            CC(=O)Cc1ccc(-c2ccc(Cl)cc2)cc1  79 to 81 °C
2  CC(C)n1nc(-c2nc(-c3cn[nH]c3)c(N)nc2-c2ccccc2)ccc1=O     > 250 °C

Would you kindly look at the next entry?
-- ask Given the entry CC(CS)C(=O)N1CCC=C1C(=O)O (stereo not drawn) , report its measured melting point.
-- reply 112 to 114 °C

###

// reported melting point per item

For orientation, consider the following solved cases.
> print(dat)
                                   compound    test.result
1        CCc1oc2ccccc2c1C(=O)c1ccc(OCCO)cc1    78 to 83 °C
2  COc1cc2c(cc1OC)C(c1ccc([N+](=O)[O-])cc1)=NN(c1ccccn1)[C@H](C)C2  210 to 214 °C
3  CCCCC(C)(OC)C(O)C=CC1C(O)CC(=O)C1CCCCCCC(=O)OC (configuration not stated)    44 to 45 °C
4  Fc1cccc(Nc2nc(OCC3CCCCC3)c3[nH]cnc3n2)c1  224 to 227 °C
5       CCCCC[C@H]1CC[C@H](c2ccc(Br)nn2)CC1  101 to 103 °C
6            COc1cc(NCCCCCCCl)c2nccc(C)c2c1          66 °C

Let's switch to this compound now.
-- ask Consider the compound shown here: Nc1ccc2c(c1)OCCNC2=O What is its recorded melting point?
-- reply 151 to 152 °C
